protocol: Plasma pharmacokinetics of FGF401 (noncompartmental) and food effect
Assay type: in vivo, human
test.parameters: human, plasma, oral, 80 mg, Cycle 1 day 8; 80 mg Fed; n=4; median [min, max]; read-out: Tmax
readout.name: Tmax (h)

{"columns": ["smi", "readout.name", "value.measured"],
 "data": [
  ["COCCNc1cc(NC(=O)N2CCCc3cc(CN4CCN(C)CC4=O)c(C=O)nc32)ncc1C#N", "Tmax", 2.5]
]}

----------
protocol: Plasma pharmacokinetics of FGF401 (noncompartmental) and food effect
Format: in vivo, human
test.parameters: human, plasma, oral, 80 mg, Cycle 1 day 8; 80 mg Fasted; n=6; geometric mean (CV%); read-out: AUC0-24h

{"columns": ["molecule", "AUC(0-t) / ng·h/mL"],
 "data": [
  ["COCCNc1cc(NC(=O)N2CCCc3cc(CN4CCN(C)CC4=O)c(C=O)nc32)ncc1C#N [FGF401, roblitinib]", 4850]
]}

----------
protocol: Plasma pharmacokinetics of FGF401 (noncompartmental) and food effect
Type: in vivo, human
test.parameters: human, plasma, oral, 120 mg, Cycle 1 day 8; 120 mg Fed; n=15; geometric mean (CV%); read-out: T1/2 (converted)

{"columns": ["molecule", "half-life, min"],
 "data": [
  ["COCCNc1cc(NC(=O)N2CCCc3cc(CN4CCN(C)CC4=O)c(C=O)nc32)ncc1C#N [FGF401, roblitinib]", 335]
]}

----------
protocol: Plasma pharmacokinetics of FGF401 (noncompartmental) and food effect
Format: in vivo, human
test.parameters: human, plasma, oral, 150 mg, Cycle 1 day 8; 150 mg Fasted; n=6; geometric mean (CV%)
readout.name: Cmax (ng/mL)

{"columns": ["smi", "readout.name", "value.measured"],
 "data": [
  ["COCCNc1cc(NC(=O)N2CCCc3cc(CN4CCN(C)CC4=O)c(C=O)nc32)ncc1C#N", "Cmax", 1070]
]}

----------
protocol: Plasma pharmacokinetics of FGF401 (noncompartmental) and food effect
Type: in vivo, human
test.parameters: human, plasma, oral, 80 mg, Cycle 1 day 8; 80 mg Fed; n=4; geometric mean (CV%)

{"columns": ["compound", "readout.units", "AUC(0-inf)"],
 "data": [
  ["COCCNc1cc(NC(=O)N2CCCc3cc(CN4CCN(C)CC4=O)c(C=O)nc32)ncc1C#N [FGF401, roblitinib]", "ng·h/mL", 5550]
]}
